System: Mycobacterium tuberculosis
test_protocol: Inhibition of Mycobacterium tuberculosis LipY pre-incubated for 30 mins with enzyme before substrate addition by pH-stat technique
reported_endpoint: XI50

Use the examples below as a reference point.
| compound | XI50 |
| --- | --- |
| CO[P@@]1(=O)CC[C@@H]2COC(=O)C2=C(C)O1 (racemic) | > 100 molar excess |
| CCCCCCCCCCCC[C@@H]1CC[P@@](=O)(OC)OC(C)=C1C(=O)OC (racemic) | 3.46 molar excess |
| CCCCCCCCCCCCCCCCCC[C@@H]1CC[P@@](=O)(OC)OC(C)=C1C(=O)OC (racemic) | 0.77 molar excess |

Next, consider the following compound.
Per the records, this compound ( CCCCCCCCCC[C@@H]1CC[P@](=O)(OC)OC(C)=C1C(=O)OC (racemic) ) has XI50 equal to 25.8 molar excess

Entry source: ChEMBL document CHEMBL2177030
